The origin of these recorded values is ChEMBL document CHEMBL1125452.

Assay read-out Ki; system under study: Gastrin/cholecystokinin type B receptor (Mus musculus).
Sequence (P56481 whole entry): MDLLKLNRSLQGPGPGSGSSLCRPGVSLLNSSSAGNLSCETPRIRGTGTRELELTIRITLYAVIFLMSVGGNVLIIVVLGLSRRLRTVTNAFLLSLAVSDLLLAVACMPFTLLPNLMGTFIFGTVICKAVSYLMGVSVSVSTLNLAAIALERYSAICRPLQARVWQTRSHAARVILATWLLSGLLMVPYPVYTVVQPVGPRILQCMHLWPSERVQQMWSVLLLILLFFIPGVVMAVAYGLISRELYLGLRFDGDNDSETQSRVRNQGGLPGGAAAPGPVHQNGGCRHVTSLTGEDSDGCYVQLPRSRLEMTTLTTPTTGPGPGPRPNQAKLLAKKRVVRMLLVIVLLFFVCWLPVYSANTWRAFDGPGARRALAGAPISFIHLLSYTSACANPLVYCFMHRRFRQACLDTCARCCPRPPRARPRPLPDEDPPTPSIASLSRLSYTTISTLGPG
Value type: Ki (nM)

a: O=C(O)C[C@@H](Cc1ccccc1)NC(=O)[C@@H](Cc1c[nH]c2ccccc12)NC(=O)OC1C2CC3CC(C2)CC1C3 (some centres not stated)
b: CC1(C)C2CCC1(C)C(OC(=O)N[C@](C)(Cc1c[nH]c3ccccc13)C(=O)N[C@H](CO)Cc1ccccc1)C2 (some centres not stated)
Asked: Between item a and item b , which reported Ki is smaller? Please respond with the label that marks your chosen entry.
Given back: b

a: O=C(N[C@H](Cc1c[nH]c2ccccc12)C(=O)N[C@H](CO)Cc1ccccc1)OC1C2CC3CC(C2)CC1C3 (stereo in doubt; 9)
b: C[C@@H]1CCCC[C@H]1OC(=O)N[C@](C)(Cc1c[nH]c2ccccc12)C(=O)N[C@H](CO)Cc1ccccc1 (stereo in doubt; 11)
Asked: Between item a and item b , which reported Ki is smaller? Please respond with the label that marks your chosen entry.
Given back: b
(b: 15.1 nM, a: 813 nM)

a: CC(Cc1c[nH]c2ccccc12)(NC(=O)OC12CC3CC(CC(C3)C1)C2)C(=O)NCCc1ccccc1 (configuration not stated)
b: CC(Cc1c[nH]c2ccccc12)(NC(=O)O[C@H]1CC2CCC1(C)C2(C)C)C(=O)NCCc1ccccc1 (some centres not stated)
c: CC1(C)C2CCC1(C)[C@@H](OC(=O)N[C@](C)(Cc1c[nH]c3ccccc13)C(=O)NC[C@H](NC(=O)/C=C/C(=O)O)c1ccccc1)C2 (some centres not stated)
d: CC1(C)C2CCC1(C)[C@@H](OC(=O)N[C@H](Cc1c[nH]c3ccccc13)C(=O)NC[C@H](NC(=O)CCC(=O)O)c1ccccc1)C2 (some centres not stated)
e: O=C(N[C@H](Cc1c[nH]c2ccccc12)C(=O)N[C@H](CO)Cc1ccccc1)OC1C2CC3CC(C2)CC1C3 (stereo in doubt; 10)
Asked: Provide the items ranked by increasing Ki. Provide the ranking by listing each label in its place in the requested order.
Given back: c, b, a, d, e
(c: 2.19 nM, b: 126 nM, a: 191 nM, d: 302 nM, e: 2090 nM)

I: C[C@@H]1CCCC[C@H]1OC(=O)NC(C)(Cc1c[nH]c2ccccc12)C(=O)NCCc1ccccc1 (some centres not stated)
II: O=C(O)CCC(=O)NC(CNC(=O)[C@@H](Cc1c[nH]c2ccccc12)NC(=O)OC1C2CC3CC(C2)CC1C3)c1ccccc1 (some centres not stated)
Asked: Out of I and II , name the one with the higher Ki. Please respond with the label that marks your chosen entry.
Given back: II
